# inhibition per entry
Biological target: DNA topoisomerase 1 (Homo sapiens)
Experiment: Inhibition of human DNA topoisomerase-1 at 100 uM using supercoiled pBR322 DNA as substrate after 30 mins by ethidium bromide staining based agarose gel electrophoresis relative to control
readout type: inhibition (%)

molecular string | readout type | result value
c1ccc(-c2cc(-c3ccsc3)nc3c2Cc2ccccc2-3)cc1 | inhibition | 72.5
Oc1ccccc1-c1cc(-c2ccsc2)nc2c1Cc1ccccc1-2 | inhibition | 12.8
c1ccc(-c2cc(-c3ccncc3)nc3c2Cc2ccccc2-3)cc1 | inhibition | 0
Oc1ccccc1-c1cc(-c2ccoc2)nc2c1Cc1ccccc1-2 | inhibition | 0.4
Oc1cccc(-c2cc(-c3ccncc3)nc3c2Cc2ccccc2-3)c1 | inhibition | 1.3
c1ccc(-c2cc(-c3ccco3)nc3c2Cc2ccccc2-3)cc1 | inhibition | 18.7
Oc1cccc(-c2cc(-c3ccoc3)nc3c2Cc2ccccc2-3)c1 | inhibition | 4.5
Oc1cccc(-c2cc(-c3ccsc3)nc3c2Cc2ccccc2-3)c1 | inhibition | 33.1
Oc1ccc(-c2cc(-c3ccsc3)nc3c2Cc2ccccc2-3)cc1 | inhibition | 45.5
Oc1ccccc1-c1cc(-c2cccnc2)nc2c1Cc1ccccc1-2 | inhibition | 0
Oc1cccc(-c2cc(-c3ccco3)nc3c2Cc2ccccc2-3)c1 | inhibition | 28.9
Oc1ccccc1-c1cc(-c2ccco2)nc2c1Cc1ccccc1-2 | inhibition | 62.4
Oc1ccc(-c2cc(-c3ccncc3)nc3c2Cc2ccccc2-3)cc1 | inhibition | 0
